Biological target: Adenosine receptor A1 (Homo sapiens, UniProt P30542)
Sequence (P30542 whole entry): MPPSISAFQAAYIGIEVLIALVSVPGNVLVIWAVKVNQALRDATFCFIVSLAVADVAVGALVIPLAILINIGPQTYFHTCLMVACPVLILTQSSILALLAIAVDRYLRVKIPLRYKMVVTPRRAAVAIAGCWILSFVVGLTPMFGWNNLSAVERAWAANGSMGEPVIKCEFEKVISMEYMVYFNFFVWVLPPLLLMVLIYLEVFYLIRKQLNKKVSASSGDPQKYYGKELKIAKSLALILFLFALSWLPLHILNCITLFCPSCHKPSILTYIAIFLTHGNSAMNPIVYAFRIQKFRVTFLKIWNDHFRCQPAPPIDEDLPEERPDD
Experiment: Displacement of radioligand from human recombinant adenosine A1 receptor at 21 degC after 90 mins by cell-based microplate scintillation counting
pKi: −log10 of the molar value.
Would you mind labelling by pKi? At or over 7 is class 1, under is class 0.

| mol | labelValue |
| --- | --- |
| Nc1nc(-c2ccco2)c2nnn(Cc3ccc4[nH]ccc4c3)c2n1 | class 1 |
| Nc1ccc(Cn2nnc3c(-c4ccco4)nc(N)nc32)c(F)c1 | class 0 |
| Nc1nc(-c2ccco2)c2nnn(Cc3cccc(O)c3)c2n1 | class 0 |
| Nc1nc(-c2nccs2)c2nnn(Cc3ccccc3F)c2n1 | class 0 |

----------
assay: Apparent permeability across human Caco-2 cell membrane; assay type: ADME, cell-based; conditions: read-out: permeability

| molecule | Papp / ×10⁻⁶ cm/s |
| --- | --- |
| Cc1cc(Cn2nnc3c(-c4ccco4)nc(N)nc32)ccc1N [VIPADENANT] | 11 |

----------
target: UniProt:P30542; test: Displacement of radioligand from human recombinant adenosine A1 receptor at 21 degC after 90 mins by cell-based microplate scintillation counting

| mol | assayedTarget | unitsOfMeasure | Ki |
| --- | --- | --- | --- |
| Nc1nc(-c2cccs2)c2nnn(Cc3ccccc3F)c2n1 | UniProt:P30542 | µM | 0.154 |
| CC(C)NC(=O)c1cccc(Cn2nnc3c(-c4ccco4)nc(N)nc32)c1 | UniProt:P30542 | µM | 0.733 |
| Nc1nc(-c2ccco2)c2nnn(Cc3ccc(N)c(O)c3)c2n1 | UniProt:P30542 | µM | 0.249 |
| Cc1cnc(-c2nc(N)nc3c2nnn3Cc2ccccc2F)s1 | UniProt:P30542 | µM | 0.086 |
| Nc1nc(-c2ccco2)c2nnn(Cc3cccc(Cl)c3)c2n1 | UniProt:P30542 | µM | 0.076 |
| Nc1nc(-c2ccco2)c2nnn(Cc3ccc(F)cc3F)c2n1 | UniProt:P30542 | µM | 0.118 |
| COc1ccccc1Cn1nnc2c(-c3ccco3)nc(N)nc21 | UniProt:P30542 | µM | 0.319 |
| N#Cc1ccc(Cn2nnc3c(-c4ccco4)nc(N)nc32)cc1 | UniProt:P30542 | µM | 0.738 |
| Nc1nc(-c2ccco2)c2nnn(Cc3ccco3)c2n1 | UniProt:P30542 | µM | 0.077 |
| Nc1nc(-c2ccco2)c2nnn(Cc3ccccn3)c2n1 | UniProt:P30542 | µM | 1.12 |
| Nc1nc(-c2ccco2)c2nnn(CC3CCCCC3)c2n1 | UniProt:P30542 | µM | 0.23 |
| Nc1nc(-c2cc[nH]n2)c2nnn(Cc3ccccc3F)c2n1 | UniProt:P30542 | µM | 1.66 |
